Kindly state hERG current change (%, negative = inhibition) at 1uM for each of the entries shown.
TEST_SYSTEM: human ether-à-go-go-related gene (hERG) potassium channel (human)
PROTOCOL: primary screen, population patch clamp on CHO cells stably expressing hERG; higher = less effect of the substance
About 2,200 (0.71%) of roughly 310,000 compounds showed an effect of 50% or more. Effects have a minus sign here. Many of the other results were omitted from the sample, so strong results are more common in it than they were.
A complete answer gives the number and then names the unit.

Known results for molecules:
OCC1(CCc2ccccc2)CCN(Cc2c(F)ccc(F)c2F)CC1    7.97%
O=C(Cc1ccccc1)N1CCC2(CC1)NCCc1[nH]cnc12    20.4%
OCC1(Cc2ccc(F)cc2)CCCN(CCc2ccccc2)C1 (stereo not drawn)    -0.0287%
Cc1ccc(NP(=O)(Oc2ccccc2F)Oc2ccccc2F)cc1    -1.69%
Cc1nc2ccccn2c1C(=O)N=Nc1c(O)[nH]c2ccccc12    13.2%

Batch request: hERG current change (%, negative = inhibition) at 1uM per item, same order as input.
1. OCC1(CCc2ccccc2)CCN(Cc2cc(Cl)ccc2O)CC1
2. OCC1(Cc2ccc(F)cc2F)CCCN(CCCc2ccccc2)C1 (stereo not drawn)
3. CCOC(=O)C(C)n1cnc2c1c(=O)[nH]c(=O)n2C (stereo not drawn)
4. OCC1(CCc2ccccc2)CCN(C/C=C/c2ccccc2)CC1

["-5.01%", "-56.1%", "8.76%", "-86.4%"]

---

TEST_SYSTEM: human ether-à-go-go-related gene (hERG) potassium channel (human, UniProt Q12809)
Sequence (Q12809 whole entry, looked up): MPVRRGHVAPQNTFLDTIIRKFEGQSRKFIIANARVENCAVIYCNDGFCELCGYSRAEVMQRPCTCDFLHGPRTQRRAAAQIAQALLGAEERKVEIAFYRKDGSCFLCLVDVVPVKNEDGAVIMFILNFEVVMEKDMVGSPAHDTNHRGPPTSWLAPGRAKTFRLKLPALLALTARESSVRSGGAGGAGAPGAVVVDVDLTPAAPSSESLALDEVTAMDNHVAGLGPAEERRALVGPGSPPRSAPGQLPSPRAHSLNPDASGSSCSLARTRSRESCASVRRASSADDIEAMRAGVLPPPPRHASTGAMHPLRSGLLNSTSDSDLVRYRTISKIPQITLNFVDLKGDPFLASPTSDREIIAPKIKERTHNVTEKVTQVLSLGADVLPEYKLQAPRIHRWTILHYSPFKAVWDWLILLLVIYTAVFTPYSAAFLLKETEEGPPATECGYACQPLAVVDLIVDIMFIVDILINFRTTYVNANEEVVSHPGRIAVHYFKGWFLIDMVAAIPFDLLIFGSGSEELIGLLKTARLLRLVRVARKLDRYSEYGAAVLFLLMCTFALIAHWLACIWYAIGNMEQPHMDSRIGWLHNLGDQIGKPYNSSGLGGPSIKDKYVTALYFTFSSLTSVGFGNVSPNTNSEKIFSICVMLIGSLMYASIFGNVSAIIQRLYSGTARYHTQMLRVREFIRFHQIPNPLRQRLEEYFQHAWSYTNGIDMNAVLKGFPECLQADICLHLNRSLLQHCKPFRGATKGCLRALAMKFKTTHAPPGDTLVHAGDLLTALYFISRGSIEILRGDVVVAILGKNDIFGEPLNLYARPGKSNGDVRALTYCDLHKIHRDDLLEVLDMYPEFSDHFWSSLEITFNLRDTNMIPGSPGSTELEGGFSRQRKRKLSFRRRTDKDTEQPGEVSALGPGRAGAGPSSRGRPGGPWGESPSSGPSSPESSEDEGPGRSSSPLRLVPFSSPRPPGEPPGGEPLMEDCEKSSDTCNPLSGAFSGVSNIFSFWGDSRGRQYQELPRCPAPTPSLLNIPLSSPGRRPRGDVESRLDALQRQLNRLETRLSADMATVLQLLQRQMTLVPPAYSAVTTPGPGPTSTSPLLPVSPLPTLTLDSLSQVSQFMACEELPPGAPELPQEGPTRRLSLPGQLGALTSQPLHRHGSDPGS
PROTOCOL: primary screen, population patch clamp on CHO cells stably expressing hERG; higher = less effect of the substance
In all, about 310,000 compounds went through this assay and about 2,200 (0.71%) showed an effect of 50% or more. The effect is printed as a negative number. This excerpt belongs to a sample that is enriched for strong results.
Kindly state hERG current change (%, negative = inhibition) at 1uM for each of the entries shown.
Answers are plain numbers, in %.

Batch request: hERG current change (%, negative = inhibition) at 1uM per item, same order as input.
1. OCCC1CN(CC#Cc2ccccc2)CCN1C1CCCC1 (stereo not drawn)
2. Cc1ccc(OCC(=O)N2CCCC(N3CCN(c4ccc(F)cc4)CC3)C2)cc1 (stereo not drawn)
3. CCC(=O)N1CCN(c2ccc(OC)cc2[N+](=O)[O-])CC1
4. Cc1cccc(-c2ncc(CN3CCN(C4CCCC4)C(CCO)C3)cn2)c1 (stereo not drawn)
5. O=C(NNc1ccccc1F)c1ccccc1
6. CC(C)CCN1CCN(CC#Cc2ccccc2)CC1CCO (stereo not drawn)
7. O=[N+]([O-])c1cc([N+](=O)[O-])c2nonc2c1Nc1ccc(O)cc1

1: -7.79; 2: -90.2; 3: -0.687; 4: -15.1; 5: 2.87; 6: 4.3; 7: 2.03

Batch request: hERG current change (%, negative = inhibition) at 1uM per item, same order as input.
1. COC(=O)c1sccc1NC(=O)Nc1cccc(F)c1
2. OCCC1CN(Cc2cnc(-c3ccc(Cl)cc3)nc2)CCN1C1CCCCC1 (stereo not drawn)
3. CCN1CCN(c2ccc(S(=O)(=O)N3CCCCC3)cc2NC(=O)c2ccc(F)cc2)CC1
4. Cl.Clc1ccc(-c2ccc(CNCc3ccccn3)o2)cc1
5. CCN1CCN(c2ccc(S(=O)(=O)N3CCCCC3)cc2NC(=O)c2ccc([N+](=O)[O-])o2)CC1
6. O=C(Cn1cnc2ccccc21)Nc1ccc(F)c(F)c1
7. COc1ccc(N2CCN(C(=O)c3ccc(Br)cc3)CC2)c([N+](=O)[O-])c1

1: 9.69; 2: -31.1; 3: -16.7; 4: -5.94; 5: -73.3; 6: 3.75; 7: -30.1

Batch request: hERG current change (%, negative = inhibition) at 1uM per item, same order as input.
1. CCCCC(=O)N1CCN(c2ccc(OC)cc2[N+](=O)[O-])CC1
2. O=C(O)C=C(Br)Br
3. Cc1ccc(NC(=O)Cn2cnc3ccccc32)cc1C

1. -54.5
2. 7.58
3. 6.29

Batch request: hERG current change (%, negative = inhibition) at 1uM per item, same order as input.
1. Cn1c(=O)c2c(ncn2CC(=O)N2CCN(c3ccc([N+](=O)[O-])cc3)CC2)n(C)c1=O
2. CCc1nc(SCC(=O)NCc2ccc(F)cc2)c2c(=O)n(C)c(=O)n(C)c2n1
3. Cc1cccc(N2CCN(C(=O)Cn3nc(Cc4ccncc4)c4ccccc4c3=O)CC2)c1C
4. CCCN1Cc2cccc(C(=O)NCc3ccc(C)cc3)c2C1=O
5. O=C(c1ccc2c(=O)n(Cc3ccccc3Cl)c(=S)[nH]c2c1)N1CCOCC1

1: -69.6; 2: 11.2; 3: 3.71; 4: -4.32; 5: 13

Batch request: hERG current change (%, negative = inhibition) at 1uM per item, same order as input.
1. CC(C)CCN1CCN(CCCc2ccccc2)CC1CCO (stereo not drawn)
2. COc1ccccc1C(=O)Nc1nnc(S(=O)(=O)N2CCC(C)CC2)s1
3. CCN1CCN(c2ccc(S(=O)(=O)N3CCCCC3)cc2NC(=O)c2ccccc2)CC1
4. Cc1cccc2cc(-c3nc4c(C)cccn4c3NCc3ccco3)c(=O)[nH]c12

-1.8
12.4
-15.6
2.58

Batch request: hERG current change (%, negative = inhibition) at 1uM per item, same order as input.
1. COc1ccc(N2CCN(C(=O)CC34CC5CC(CC(C5)C3)C4)CC2)c([N+](=O)[O-])c1
2. O=C(CSc1ccccc1)N1CCCC(N2CCN(c3ccccc3)CC2)C1 (stereo not drawn)
3. Cn1c(=O)c2c(nc(N3CCOCC3)n2C)n(C)c1=O
4. CC(C)CCNC(=O)C12CN(Cc3ccccc3)CC1C(c1cccc([N+](=O)[O-])c1)=NO2 (stereo not drawn)

10.3
2.18
-1.83
9.69

Data origin, for the record: paper PMC4336329
